assay: HT29 colon tumor cell growth inhibition, primary screen, imaging, high content imaging, 48 h, CellTiter-Glo (AID 771); conditions: HCS imaging cell count, at 10 µM, stronger effect = higher value
Among all 3,300 compounds or so, about 55 (2%) were called active. The sample holds actives, similar compounds and a random draw of the others, so the mix is not that of the screen.
The entries below come with measured growth inhibition values attached.
Observable: growth inhibition (%)

1. Cc1ccc(CNC(=O)c2cc3c(=O)n4ccccc4nc3n(Cc3ccco3)c2=N)cc1 : 38.7
2. Clc1ccc(-n2ncc3c(NCc4cccs4)ncnc32)cc1 : -9.4
3. COc1ccc(OC)c(C(O)c2coc3ccc(O)c(CN4CCOCC4)c23)c1 (stereo unspecified) : -2.41
4. COC(=O)c1ccc(Nc2cc(C)nc(-c3ccccc3O)n2)cc1 : 12.1
5. COC(=O)c1cccc(Nc2cc(C)nc(-c3ccccc3O)n2)c1 : 91.6
6. CSc1ccc2c(c1)N(CCC1CCCCN1C)c1ccccc1S2 (stereo unspecified) : 8.58
7. Cn1c(=O)c2c3c(sc2n2c(SCC(=O)c4ccc(Cl)cc4)nnc12)COC(C)(C)C3 : -42.1
8. N#CC1=C(SCC(=O)c2ccccc2)NC2=C(C(=O)CCC2)C1c1ccco1 (stereo unspecified) : 94.2
9. CCCCC(=O)NC(Nc1ccc(C)cn1)(C(=O)OCC)C(F)(F)F (stereo unspecified) : -56.4
10. N#CC1=C(SCC(=O)c2ccc(Cl)cc2)NC2=C(C(=O)CCC2)C1c1ccco1 (stereo unspecified) : 92.8
11. Clc1ccc(-n2ncc3c(NCc4ccco4)ncnc32)cc1 : 92.3
12. Cc1cccc(-n2ncc3c(NCCN4CCOCC4)ncnc32)c1 : 15.5
13. OCCN1CCN(CCCN2c3ccccc3Sc3ccc(Cl)cc32)CC1 : 84.9
14. CCn1nnc(C(=O)O)c1C(=O)O : -4.1
15. CCc1ccc(NC(=O)CSC2=C(C#N)C(c3ccco3)C3=C(CCCC3=O)N2)cc1 (stereo unspecified) : 86.5
16. COC(=O)C1CCN(c2nc3ccccc3nc2C(C#N)C(=O)NCCc2ccccc2)CC1 (stereo unspecified) : 30

###

assay: HT29 colon tumor cell growth inhibition, primary screen, imaging, high content imaging, 48 h, CellTiter-Glo (AID 771); settings: HCS imaging cell count, measured here: ATP CellTiter-Glo viability inhibition, at 10 µM, stronger effect = higher value
In all, about 3,300 compounds went through this assay and about 55 (2%) were called active. This is one part of a sample in which actives are shown more often than they occur.
Observable: growth inhibition (%)

1. Oc1ccccc1-c1nc(NCCN2CCOCC2)c2ccccc2n1 : 73.4
2. COc1cccc(-c2nc(N3CCN(Cc4ccccc4)CC3)c3ccccc3n2)c1O : 0.87
3. COc1ccc(-n2ncc3c(Nc4cccc(C)c4)ncnc32)cc1 : -2.53
4. CNC(=O)Nc1cccc(NC(=O)NC)n1 : 6.59
5. CCOc1cc2nc(-c3ccc(OC)c(OC)c3)nc(N3CCOCC3)c2cc1OC : 90
6. C=CCn1c(-c2ccccc2)n[nH]c1=S : -24.2
7. CCOc1ccc(-c2nnc3sc(COc4ccccc4)nn23)cc1 : -17

###

experiment: HT29 colon tumor cell growth inhibition, primary screen, imaging, high content imaging, 48 h, CellTiter-Glo (AID 771); conditions: HCS imaging cell count, measured here: percent cells with condensed nuclei, at 10 µM, stronger effect = higher value;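 for condensed nuclei: condensed means Hoechst nuclear area under control median minus 1.5 SD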
The campaign covered roughly 3,300 compounds. About 55 (2%) were called active. For the sample, actives were picked, then their nearest neighbours and some compounds at random.
The entries below are paired with their reported condensed nuclei.
Observable: condensed nuclei (%)

1) C=CCNc1nc(N2CCOCC2)c(C#N)c2c1CN(C)CC2 : 0.96
2) N#CC12CCCCC1CC1CCCCC1(C#N)N2Cc1cccnc1 (stereo not given) : 2.55
3) CCOc1ccc(C2/C(=C(/O)c3ccc(F)cc3)C(=O)C(=O)N2CCCN(C)C)cc1 (stereo not given) : 5.22
4) Cc1nc(=O)c(-c2ccccc2)c(C)n1-c1ccc(S(N)(=O)=O)cc1 : 2.99
5) C=CCNc1nc(NCc2ccccc2)c(C#N)c2c1CN(C)CC2 : 12.5
6) CCN(CC)C(=O)c1ccc(O)c(OC)c1 : 2.13
7) CCCc1cc(NCCCCO)n2c(nc3ccccc32)c1C#N : 2.71
8) O=C1[C@@H]2[C@H](C(=O)N1O)[C@H]1C=C[C@@H]2C1 : 1.79
9) CC(C)C1Cc2c(C#N)c(N)sc(=S)c2CO1 (stereo not given) : 3.02
10) CCCc1nnc(SCc2ccc(OCC)cc2)n1N : 1.98
11) C=CCNc1nc(N2CCCCC2)c(C#N)c2c1CN(Cc1ccccc1)CC2 : 2.73
12) CC/C(C)=C1\SC(N2CCN(C(C)=O)CC2)=NC1=O : 2.39
13) COC(=O)c1cc(Br)c(=O)n(Cc2ccco2)c1 : 2.45
14) CCN1CCc2c(C#N)c(N3CCCCC3)nc(NCc3ccccc3)c2C1 : 3.42
15) CCN(CC)CCOC(=O)C1(c2ccc(OC)c(OC)c2)CCCC1 : 1.64
16) CC1CN(C2CCN(C(=O)COc3ccccc3)CC2)CC(C)O1 (stereo not given) : 2.3
17) COC(=O)CSc1nc2sc3c(c2c(=O)n1C1CCCCC1)CCN(C)C3 : 4.17
18) COc1ccc(/C(O)=C2\C(=O)C(=O)N(c3cc(C)on3)C2c2cccc(OC)c2OC)cc1C (stereo not given) : 2.33
19) CCC1(C)Cc2ccccc2-c2nc(NCCO)n(-c3ccccc3)c(=O)c21 (stereo not given) : 2.11
20) CCN1CCc2c(C#N)c(NCc3ccccc3)nc(NCCO)c2C1 : 1.53
